Data origin, for the record: patent US9980943B2

- Tested on: β-galactosidase in CMV-LacZ C2C12 myoblasts
- EXPERIMENT: CMV-LacZ secondary screen in C2C12 myoblasts (β-Gal stabilizing assay)
- Type: cell-based, mouse
- ASSAY_SETUP: 5 uM; SU9516 analogs, C2C12 CMV-LacZ, N=2
The reader will find reported CMV-LACZ in Myoblasts, value relative to DMSO values listed item by item below.
MEASUREMENT_LABEL: CMV-LACZ in Myoblasts, value relative to DMSO

>>> print(df.to_string())
                                   compound                            assayed_system  value_observed
0  O=Nc1c(-c2c(O)[nH]c3cc(Br)ccc23)[nH]c2ccccc12  β-galactosidase in CMV-LacZ C2C12 myoblasts          1.0309
1         O=C1Nc2ccccc2/C1=C/c1ccnc2ccccc12  β-galactosidase in CMV-LacZ C2C12 myoblasts          0.9823
2  O=C(O)COc1ccccc1/C=C1\C(=O)Nc2ccc(Br)cc21  β-galactosidase in CMV-LacZ C2C12 myoblasts          0.9957
3        Cc1ccc2c(c1)/C(=C/c1ccccc1)C(=O)N2  β-galactosidase in CMV-LacZ C2C12 myoblasts          0.9669
4  O=C1Nc2ccccc2/C1=C\c1cccn1-c1ccc(OC(F)(F)F)cc1  β-galactosidase in CMV-LacZ C2C12 myoblasts          0.9273
5  COc1ccc2c(c1)C(=C(C#N)C#N)C(=O)N2CCc1ccccc1  β-galactosidase in CMV-LacZ C2C12 myoblasts          1.1447
6  COc1cc(OC)c(/C=C2/C(=O)Nc3ccccc32)c(OC)c1  β-galactosidase in CMV-LacZ C2C12 myoblasts          1.4889
7  Cc1cc(C)c(/C=C2\C(=O)Nc3ccccc32)[nH]1 [NCGC00094381-03]  β-galactosidase in CMV-LacZ C2C12 myoblasts          0.8667

====

- Tested on: β-galactosidase in CMV-LacZ C2C12 myotubes
- EXPERIMENT: CMV-LacZ secondary screen in C2C12 myotubes (β-Gal stabilizing assay)
- Assay type: cell-based, mouse
- ASSAY_SETUP: 20 uM; C2C12 CMV-LacZ myotubes; fold relative to DMSO
MEASUREMENT_LABEL: CMV-LACZ in Myotubes, signal relative to DMSO

>>> print(df.to_string())
                           molecular_string  value_observed
0  COC(=O)c1ccccc1NC(=O)CSc1nc(O)c(-c2ccccc2)c(=O)[nH]1          0.9853
1  COc1ccccc1CC(=O)Nc1cc(S(=O)(=O)N2CCOCC2)ccc1N1CCOCC1          0.9710
2  Cc1cccc(C)c1NCC(=O)N1CCN(Cc2ccccc2)CC1.Cl          1.0256
3                     c1ccc(-c2nn[nH]n2)nc1          1.0144
4  Fc1ccc(-c2ccnc3nc(N4CCN(c5ccccc5)CC4)nn23)cc1          1.0190
5  Cc1ccccc1S(=O)(=O)N1C[C@H]2CON(C)[C@H]2C[C@H]1c1cccc(-c2ccccc2)c1          0.9870
